Tested on: OTUD7B (Homo sapiens)
Assay text: Ub-Rho110Gly DUB activity assay; also intact protein LC-MS kinetics (kinact/KI […] ^-1 s^-1), lysate ABPP (TE50 […])
Type: biochemical
Parameters: OTUD7B aa129-438 (intact protein LC-MS)
Assay endpoint: IC50

Note to self: IC50 recorded for O=C(CCl)N[C@@H]1CCCc2ccccc21 [compound 30] was 58.3 µM

* * *

Tested on: OTUD7B (Homo sapiens, UniProt Q6GQQ9)
Sequence (Q6GQQ9 129-438): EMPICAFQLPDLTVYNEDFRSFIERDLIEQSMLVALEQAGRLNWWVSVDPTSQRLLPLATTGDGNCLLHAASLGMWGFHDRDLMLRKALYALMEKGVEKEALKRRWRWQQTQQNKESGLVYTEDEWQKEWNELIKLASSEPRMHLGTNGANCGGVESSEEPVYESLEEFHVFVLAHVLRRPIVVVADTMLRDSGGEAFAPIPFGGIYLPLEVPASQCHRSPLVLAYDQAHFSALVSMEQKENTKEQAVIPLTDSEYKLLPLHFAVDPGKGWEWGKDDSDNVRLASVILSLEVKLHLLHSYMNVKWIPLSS
Assay text: Ub-Rho110Gly DUB activity assay; also intact protein LC-MS kinetics (kinact/KI […] ^-1 s^-1), SiteID LC-MS/MS, lysate ABPP (TE50 […])
Format: biochemical
Parameters: OTU domain; OTUD7B aa129-438 (intact protein LC-MS), aa129–538 (SiteID)
Assay endpoint: pIC50
Convention used: pIC50 is expressed as -log10 of the molar concentration.

Per the records, this molecule ( O=C(CCl)N[C@H]1CCCc2ccccc21 [compound 29] ) has pIC50 equal to 5.46
